Form field: inhibition (one value per entry).
- assay-system: Dual specificity mitogen-activated protein kinase kinase 1 (Homo sapiens) (UniProt Q02750);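 further: values reported are mean inhibition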
- Sequence (Q02750 whole entry): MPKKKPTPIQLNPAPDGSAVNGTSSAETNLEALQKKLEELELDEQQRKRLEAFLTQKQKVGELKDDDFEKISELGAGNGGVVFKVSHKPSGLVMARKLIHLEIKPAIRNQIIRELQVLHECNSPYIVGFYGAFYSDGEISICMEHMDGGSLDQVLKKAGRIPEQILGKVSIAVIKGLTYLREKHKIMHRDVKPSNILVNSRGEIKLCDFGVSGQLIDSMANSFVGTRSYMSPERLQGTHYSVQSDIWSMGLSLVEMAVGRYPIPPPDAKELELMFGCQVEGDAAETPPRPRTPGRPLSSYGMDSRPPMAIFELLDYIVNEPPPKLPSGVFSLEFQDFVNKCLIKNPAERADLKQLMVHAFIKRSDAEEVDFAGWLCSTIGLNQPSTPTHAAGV
- study-conditions: at 1 µM
Your answer should be a plain number; it is taken to be in %.

[
  {
    "compound-smiles": "COc1cc(C=NNc2ncnc3c2cnn3-c2ccccc2)ccc1O",
    "inhibition, %": 1.06
  },
  {
    "compound-smiles": "CCn1c(-c2nonc2N)nc2ccncc21",
    "inhibition, %": 1.41
  },
  {
    "compound-smiles": "Cc1nn(C)c2cc(N(C)c3ccnc(Nc4cccc(S(N)(=O)=O)c4)n3)ccc12",
    "inhibition, %": 4.09
  }
]

The molecule identified as "CCn1c(-c2nonc2N)nc2c(C#CC(C)(C)O)nc(OC[C@@H](N)c3ccccc3)cc21" registered its inhibition at 3.8

The molecule identified as "NC(=O)c1ccc(-c2nc(-c3ccccn3)c(-c3ccc4c(c3)OCO4)[nH]2)cc1" registered its inhibition at 3.52

The molecule identified as "COc1ccc(COc2ccc(Cc3cnc(N)nc3N)cc2OC)cc1" registered its inhibition at 0.97

The molecule identified as "CS(=O)(=O)CCNCc1nc(-c2ccc3ncnc(Nc4ccc(F)c(Cl)c4)c3c2)cs1" registered its inhibition at 2.66

The molecule identified as "COc1cc2c(cc1Nc1nc(N3CCc4ccccc43)c3cc[nH]c3n1)N(C(=O)CN(C)C)CC2" registered its inhibition at 2.14

The molecule identified as "O=C1NC(=O)C(c2ccc(Cl)cc2)=C1Nc1ccc(Cl)c(C(=O)O)c1" registered its inhibition at -3.36

Every entry's value here was drawn from ChEMBL document CHEMBL1961873.
